# TESTED_TARGET: T1, Human CD3eg linker (human)
# T1 construct: single-chain construct; also called recombinant human CD3
# T1 chain: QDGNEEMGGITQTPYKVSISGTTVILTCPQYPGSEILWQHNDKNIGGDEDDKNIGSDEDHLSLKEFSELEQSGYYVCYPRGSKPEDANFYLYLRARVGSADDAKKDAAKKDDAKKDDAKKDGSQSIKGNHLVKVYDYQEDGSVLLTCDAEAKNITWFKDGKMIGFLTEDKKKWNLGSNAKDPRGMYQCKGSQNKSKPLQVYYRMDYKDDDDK
# TEST: SPR, vs unmutated H183/L072
Property: fold change of affinity; scope: individual binders
Response body: numeric value in fold, unit text excluded.

dBBDu183H K64T/dBBDu072L (antibody, name in Kabat numbering, V domains shown) VH: QVQLVESGGGLVQPGRSLRLSCAASGFTFSNAWMHWVRQAPGKGLEWVAQIKDKGNAYAAYYAPSVTGRFTISRDDSKNSIYLQMNSLKTEDTAVYYCHYVHYASASTVLPAFGVDAWGQGTTVTVSS VL: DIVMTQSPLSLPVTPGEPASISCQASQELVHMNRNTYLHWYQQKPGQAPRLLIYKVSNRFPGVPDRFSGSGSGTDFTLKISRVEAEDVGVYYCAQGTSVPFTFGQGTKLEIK : 1.1
dBBDu183H F100gV/dBBDu072L (antibody, name in Kabat numbering, V domains shown) VH: QVQLVESGGGLVQPGRSLRLSCAASGFTFSNAWMHWVRQAPGKGLEWVAQIKDKGNAYAAYYAPSVKGRFTISRDDSKNSIYLQMNSLKTEDTAVYYCHYVHYASASTVLPAVGVDAWGQGTTVTVSS VL: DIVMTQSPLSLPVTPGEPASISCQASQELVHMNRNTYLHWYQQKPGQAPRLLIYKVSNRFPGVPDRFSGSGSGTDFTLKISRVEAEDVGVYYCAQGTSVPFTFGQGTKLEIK : 1.2

Here is another binder to look at.
Query string: Query: fold change of affinity; subject: dBBDu183H G100hD/dBBDu072L (antibody, name in Kabat numbering, V domains shown) VH: QVQLVESGGGLVQPGRSLRLSCAASGFTFSNAWMHWVRQAPGKGLEWVAQIKDKGNAYAAYYAPSVKGRFTISRDDSKNSIYLQMNSLKTEDTAVYYCHYVHYASASTVLPAFDVDAWGQGTTVTVSS VL: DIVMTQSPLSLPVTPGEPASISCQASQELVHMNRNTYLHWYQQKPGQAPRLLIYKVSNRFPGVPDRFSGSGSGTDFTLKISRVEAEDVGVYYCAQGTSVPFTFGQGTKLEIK
Result string: 0.5

Attribution: patent US20210388087A1
